Property: Population Pyknosed Nuclei (%); scope: individual compounds
- Tested on: U2OS
- PROTOCOL_DESCRIPTION: Multiplex assay against U2OS
- Type: toxicity, cell-based
- RECORDED_CONDITIONS: human, 12 h, 10 µM, compound concentration 10 uM, replicate 2
The figure you give is taken to be in %; do not add the unit.

Some compounds with recorded Population Pyknosed Nuclei (%):
• N[C@@]1(C(=O)O)CO[C@H]2[C@H](C(=O)O)[C@H]21 [LY-379268] = 3
• Cl.Clc1ccc2nsnc2c1NC1=NCCN1 [TIZANIDINE HYDROCHLORIDE] = 10
• CC1(COc2ccc3c(c2)ncn3-c2ccc3cccc(N4CCC(N)CC4)c3n2)COC1 [CRENOLANIB] = 41

Pending compound:
Reported Population Pyknosed Nuclei (%) ( Cc1ccc(/C(=C\CN2CCCC2)c2ccccn2)cc1 [TRIPROLIDINE] ) = 7

Entry source: ChEMBL document CHEMBL5058577
